Where these numbers come from: patent US20110251230A1

# System: NRF2-ARE pathway in the CHO 4× ARE-TK cell line
# TEST: ARE reporter assay in CHO 4×ARE-TK-GFP cell line (GFP induction, EthD1 toxicity)
# MEASUREMENT_CONTEXT: Chinese hamster, 24 h
Counter-ions that a name gives are not always drawn.

>  <COMPOUND>
Oc1ccc(O)cc1 [hydroquinone, reference compound]

>  <Lowest dose with toxicity (µM)>
100

$$$$
>  <COMPOUND>
OC[C@H]1O[C@@H](n2cnc3c(NCc4ccco4)ncnc32)[C@H](O)[C@@H]1O [kinetin riboside]

>  <Lowest dose with toxicity (µM)>
30

$$$$
>  <COMPOUND>
COc1cc(O)c(C)c(O)c1 [2,6-dihydroxy-4-methoxytoluene]

>  <Lowest dose with toxicity (µM)>
100

$$$$
>  <COMPOUND>
O=C(CCBr)N1CCN(C(=O)CCBr)CC1 [Pipobroman, reference compound]

>  <Lowest dose with toxicity (µM)>
100

$$$$
>  <COMPOUND>
C=C(CC)C(=O)c1ccc(OCC(=O)O)c(Cl)c1Cl [Ethacrynic acid, reference compound]

>  <Lowest dose with toxicity (µM)>
100

$$$$
>  <COMPOUND>
COc1cccc(O)c1O

>  <Lowest dose with toxicity (µM)>
100

$$$$
>  <COMPOUND>
CN1CCc2cccc3c2[C@H]1Cc1ccc(O)c(O)c1-3 [Apomorphine hydrochloride, reference compound]

>  <Lowest dose with toxicity (µM)>
100

$$$$
>  <COMPOUND>
CC1(C)C2CC(=O)O[C@@]3(C)C4=CC(=O)O[C@@H](c5ccoc5)[C@]4(C)CCC3[C@@]2(C)C=C[C@H]1O (stereo partly drawn)

>  <Lowest dose with toxicity (µM)>
100

$$$$
>  <COMPOUND>
Cc1cc(O)c(C)c(O)c1C(=O)O

>  <Lowest dose with toxicity (µM)>
100

$$$$
>  <COMPOUND>
CC(C)N(C(=O)CCl)c1ccccc1

>  <Lowest dose with toxicity (µM)>
100

$$$$
>  <COMPOUND>
C=C(C)/C=C1/C=CC(=O)C(C)=C1

>  <Lowest dose with toxicity (µM)>
100

$$$$
>  <COMPOUND>
COc1cc(O)cc(OC)c1OC [Antiarol]

>  <Lowest dose with toxicity (µM)>
100

$$$$
>  <COMPOUND>
CC(COc1ccccc1)NC(C)C(O)c1ccc(O)cc1 (stereo not drawn) [Isoxsuprine hydrochloride, reference compound]

>  <Lowest dose with toxicity (µM)>
100

$$$$
>  <COMPOUND>
O=c1c2ccccc2[se]n1-c1ccccc1 [Ebselen, reference compound]

>  <Lowest dose with toxicity (µM)>
100

$$$$
>  <COMPOUND>
CC1=CC(=O)C(C(C)C)=CC1=O

>  <Lowest dose with toxicity (µM)>
30

$$$$
>  <COMPOUND>
CC(=O)OC1CC[C@@]2(C)C(CC[C@H]3[C@@H]4CC=C(C(C)=O)[C@@]4(C)C(=O)C[C@@H]32)C1 (stereo partly drawn)

>  <Lowest dose with toxicity (µM)>
30

$$$$
>  <COMPOUND>
C=CC(C1=CC(=O)C=CC1=O)c1ccccc1 (stereo not drawn)

>  <Lowest dose with toxicity (µM)>
30

$$$$
>  <COMPOUND>
O=C(/C=C/c1ccc(O)cc1)c1ccc(O)cc1O

>  <Lowest dose with toxicity (µM)>
30

$$$$

###

Listing of recorded Lowest dose with toxicity by entry.
# Test system: NRF2-ARE pathway in the CHO 4× ARE-TK cell line
# TEST: ARE reporter assay in CHO 4×ARE-TK-GFP cell line (GFP induction, EthD1 toxicity)
# MEASUREMENT_CONTEXT: CHO ARE reporter assay

>  <COMPOUND>
COC(=O)[C@H](O)[C@H]1C(C)(C)[C@H](OC(C)=O)[C@@H]2CC3=C4CC(=O)O[C@@H](c5ccoc5)[C@]4(C)CC[C@@H]3[C@@]1(C)C2=O [swietenolide 3 acetate]

>  <OUTPUT_UNIT>
µM

>  <Lowest dose with toxicity>
100

$$$$
>  <COMPOUND>
Cc1[nH]c2ccccc2c1CN(C)C

>  <OUTPUT_UNIT>
µM

>  <Lowest dose with toxicity>
100

$$$$
>  <COMPOUND>
C=C(C)C(=O)C(=CC(=O)O)OC

>  <OUTPUT_UNIT>
µM

>  <Lowest dose with toxicity>
100

$$$$
>  <COMPOUND>
COc1ccc2c(c1)OC/C(=C/c1ccc(OC)c(OC)c1)C2=O

>  <OUTPUT_UNIT>
µM

>  <Lowest dose with toxicity>
100

$$$$
>  <COMPOUND>
CC1(C)C(=O)C=C[C@]2(C)[C@H]3CC[C@@]4(C)[C@H](c5ccoc5)OC(=O)[C@H]5O[C@]54[C@]3(C)[C@H](O)C[C@@H]12

>  <OUTPUT_UNIT>
µM

>  <Lowest dose with toxicity>
30

$$$$
>  <COMPOUND>
COc1ccc(/C=C/C(=O)c2ccccc2)cc1

>  <OUTPUT_UNIT>
µM

>  <Lowest dose with toxicity>
100

$$$$
